Data provenance is PubChem BioAssay (NCI).

Tested on: UO-31 renal
measurement description: NCI-60 one-dose screen, 48 h (100 = growth as untreated, 0 = no growth, -100 = all killed)
test conditions: 10 µM unless noted
Experimental: Growth inhibition of the UO-31 human tumor cell line is measured as a screen for anti-cancer activity. Cells are grown in 96 well plates and exposed to the test compound for 48 hours. Compounds are tested at a single concentration, which is 10^-5 M for most compounds. The reported endpoint is percent growth (GI% or GIPRCNT), where numbers from 0 - 100% represent growth inhibition, and numbers from -100% - 0 represent cell death. For example, a value of 40 represents 60% growth inhibition. […]
This is part of a sample that, as a whole, favours compounds with a hit. Of some 83,000 tested, about 20% had one in any assay.
Decision: growth compared against 20%; not below it gives label 1, below it gives label 0.

>  <molecule>
COC(=O)c1cc(C(=O)C(F)(F)F)n2c3ccccc3c3ccccc3c12

>  <target>
UO-31 renal

>  <group label>
label 1

$$$$
>  <molecule>
CC1=C(C(=O)OCc2ccccc2)C(c2ccc(N(C)C)cc2)n2c(nc3ccccc32)N1 (stereo not drawn)

>  <target>
UO-31 renal

>  <group label>
label 1

$$$$
>  <molecule>
Cc1ccc(C(=O)Nc2cc(-c3ccncc3)cc(C(F)(F)F)c2)cc1C#Cc1cnc2cccnn12

>  <target>
UO-31 renal

>  <group label>
label 1

$$$$

Read the next record carefully.
Incoming: Please check the record C=CC(=O)N1CCN(c2ccc3nc4c(nc3c2C(F)(F)F)C(=O)c2ncccc2C4=O)CC1 and state if its growth is at or above 20%.
Outgoing: label 1
